Format: in vivo
Details: human, plasma, oral, TMR Cmax, geometric mean (coefficient of variation [%]), FTR 600 mg ER BID coadministered with BUP/NLX
recorded metric: Cmax (ng/mL)

{"smiles record": "COc1cnc(-n2cnc(C)n2)c2[nH]cc(C(=O)C(=O)N3CCN(C(=O)c4ccccc4)CC3)c12", "meas value": 2050}

---

Type: in vivo
Conditions: human, plasma, oral
recorded metric: AUC (ng·h/mL)

{"smiles record": "COc1cnc(-n2cnc(C)n2)c2[nH]cc(C(=O)C(=O)N3CCN(C(=O)c4ccccc4)CC3)c12", "unit info": "ng·h/mL", "meas value": 9760}

---

Assay type: in vivo
Details: human, plasma, oral, TMR C12, geometric mean (coefficient of variation [%]), FTR 600 mg ER BID coadministered with BUP/NLX

{"compound": "COc1cnc(-n2cnc(C)n2)c2[nH]cc(C(=O)C(=O)N3CCN(C(=O)c4ccccc4)CC3)c12 [TMR, temsavir]", "concentration at 12 h": "468 ng/mL"}
